So I've got a bunch of compounds here, and I need their GI50 values.
# System: OVCAR-4
# Test: NCI tumour cell line growth inhibition, 48 h
Calls of active or inactive are those of the source. Rule as the data show it: active = GI50 up to about 1.1 µM and inactive = higher.

For COC(=O)[C@H](C)NC(=O)[C@H](CSC)N1C(=O)N[C@@H](C(C)C)C1=O the compound record lists GI50 as > 100 µM (inactive)

For COc1cc2c(cc1OC)[C@H]1C(COC(=O)c3ccccc3)CS/C(=N/c3ccccc3)N1CC2 (stereo not given in full) the compound record lists GI50 as 5.15 µM (inactive)

For O=c1c(O)c(-c2ccc(O)c(O)c2)oc2cc(O)cc(O)c12 [QUERCETIN] the compound record lists GI50 as > 100 µM (inactive)

For Cc1nnc2sc(Cc3cnc(N)s3)nn12 the compound record lists GI50 as > 100 µM (inactive)

For COc1ccc(/C(Cl)=C(/c2ccc(O)cc2)c2ccc(OCCN(C)C)cc2)cc1 the compound record lists GI50 as 13.9 µM (inactive)

====

# Test system: HCT-116
# Test: NCI tumour cell line growth inhibition, 48 h
Calls of active or inactive are those of the source. No stated cut-off is given here; in the data, active = GI50 up to about 1.1 µM and inactive = higher.
So I've got a bunch of molecules here, and I need their GI50 values.

Measured GI50 (HCT-116), entry COc1cc(C(C#N)NNc2nc(C)cc(O)n2)cc(OC)c1OC (stereo unspecified) : > 100 µM (inactive)

Measured GI50 (HCT-116), entry CC1C2(C)OC(=N)C(C#N)(C(C)O2)C1(C#N)C#N (stereo unspecified) : 24.4 µM (inactive)

Measured GI50 (HCT-116), entry COC(=O)c1cc(C)n2c1CS[C@@H]2c1ccccc1 : 33.7 µM (inactive)

Measured GI50 (HCT-116), entry CC1=C(C(=O)CC(=O)C(=O)Nc2cc(C)ccc2C)Sc2ccccc2N1 : > 100 µM (inactive)

Measured GI50 (HCT-116), entry CC(Br)CN1CCOCC1 (stereo unspecified) : > 100 µM (inactive)

Measured GI50 (HCT-116), entry Cc1cc(O)c2c(c1O)C(=O)c1cccc(O)c1C2=O : > 100 µM (inactive)

====

So I've got a bunch of compounds here, and I need their GI50 values.
# Tested on: OVCAR-3
# Test: NCI tumour cell line growth inhibition, 48 h
Activity calls are given as the source filed them. No stated cut-off is given here; in the data, active = GI50 up to about 1.1 µM and inactive = higher.

For COC(=O)c1csnn1 the compound record lists GI50 as > 100 µM (inactive)

For CC(=O)Nc1ccc(C(=O)NN2C(=O)C(Cl)C2/C=C/c2ccccc2)cc1 (stereo unspecified) the compound record lists GI50 as > 100 µM (inactive)

For C/C(=C\c1ccccc1)C(=O)NCc1ccc(C(=O)NCCc2ccccc2)cc1 the compound record lists GI50 as > 100 µM (inactive)

For COC(=O)C1=C(C(=O)OC)SC(=C2c3ccsc3-c3sccc32)S1 the compound record lists GI50 as 31 µM (inactive)

For Nc1nc(O)nc2snnc12 the compound record lists GI50 as > 100 µM (inactive)

For CCN(CC)c1c(C(C)(C)C)c(=O)n2ccsc2c1OC(C)=O the compound record lists GI50 as 17.1 µM (inactive)

For O=C1N[C@@H]2c3c(Br)sc(Br)c3C(=O)[C@@H]2O1 the compound record lists GI50 as 1.8 µM (inactive)

For O=C(CC(=O)N1N=C(N2c3ccccc3Sc3ccccc32)CC1c1ccccc1)Nc1ccccc1Cl (stereo unspecified) the compound record lists GI50 as > 100 µM (inactive)

For Clc1ccc(-c2nc3cc(Cl)ccc3[nH]2)cc1 the compound record lists GI50 as 28.9 µM (inactive)

For COc1ccc2c(c1)C/C(=C\c1cccc3ccccc13)C2=O the compound record lists GI50 as 13.4 µM (inactive)

For CCOP(=O)(OCC)[C@]12C[C@@H](C)C=C[C@H]1COC2=O the compound record lists GI50 as > 100 µM (inactive)

====

# Tested on: LXFL 529
# Test: NCI tumour cell line growth inhibition, 48 h
Active and inactive are the calls of the source. Cut-off read from the data, not from the text of the source: active = GI50 up to about 1.1 µM and inactive = higher.
So I've got a bunch of molecules here, and I need their GI50 values.

For CCN(CC)CCOc1ccc(/C=C(\C#N)c2ccc(OCCN(CC)CC)cc2)cc1 the molecule record lists GI50 as 16.1 µM (inactive)

For C[C@@H]1C[C@@H]2C(=O)N(c3ccccc3)C(=O)[C@@H]2c2[nH]c3ccc(Br)cc3c21 the molecule record lists GI50 as 37.6 µM (inactive)

For O=C(CC1(O)C(=O)Nc2c(Cl)cc(Cl)cc21)c1cccc2ccccc12 (stereo not given) the molecule record lists GI50 as 15.3 µM (inactive)

For CCOC(C[C@H](O)[C@H]1COC(=S)S1)OCC the molecule record lists GI50 as > 100 µM (inactive)

For O=C1C2C3C=CC(C2C(=O)N1COP(=O)(O)O)C1C2C(=O)N(COP(=O)(O)O)C(=O)C2C31 (stereo not given) the molecule record lists GI50 as > 100 µM (inactive)

For CCCCCCCCC(=O)CCCCCCCCC(=O)O the molecule record lists GI50 as 27 µM (inactive)

For COc1ccc(/C(Cl)=C(/c2ccc(O)cc2)c2ccc(OCCN(C)C)cc2)cc1 the molecule record lists GI50 as 10.8 µM (inactive)

For CCOc1ccccc1NC(=O)CC(C(=O)OC)C(=O)C(=O)OC (stereo not given) the molecule record lists GI50 as > 100 µM (inactive)

For CN1C/C(=C\C=C\c2ccccc2)C(=O)/C(=C/C=C/c2ccccc2)C1 the molecule record lists GI50 as 78.7 µM (inactive)

For CNC(=O)NC(CCCCNC(=O)OCc1ccccc1)C(=O)OCc1ccccc1 (stereo not given) the molecule record lists GI50 as 33.9 µM (inactive)

====

So I've got a bunch of compounds here, and I need their GI50 values.
# Test system: RPMI-8226
# Test: NCI tumour cell line growth inhibition, 48 h
Active and inactive are the calls of the source. No stated cut-off is given here; in the data, active = GI50 up to about 1.1 µM and inactive = higher.

For CCOP(=O)(OCC)[C@]12C[C@@H](C)C=C[C@H]1COC2=O the compound record lists GI50 as > 100 µM (inactive)

For Cc1ccc(CS(=O)(=O)C/N=C2\Sc3ccccc3N\C2=C/C(=O)c2ccc(Cl)cc2)cc1 the compound record lists GI50 as > 10 µM (inactive)

For CC(=O)O[C@H]1CCC2[C@@H]3CCC4=C(O)c5nocc5C[C@]4(C)C3CC[C@@]21C (stereo not given in full) the compound record lists GI50 as > 100 µM (inactive)

For O=C1C=C(OCCCCl)C(=O)c2c(O)ccc(O)c21 the compound record lists GI50 as 2.06 µM (inactive)

For C[C@H](C(O)CC(=O)C(C)(C)O)[C@H]1CC[C@@]2(C)[C@@H]3CC[C@H]4C(C)(C)[C@@H](OC5OC(COC6OC(CO)C(O)C(O)C6O)C(O)C(O)C5O)CC[C@]4(C)C3=CC[C@]12C (stereo not given in full) the compound record lists GI50 as > 100 µM (inactive)

For CCOC(=O)C(C(N)=O)C1=Nc2cc([N+](=O)[O-])ccc2N/C1=C\C(=O)c1ccccc1 (stereo not given) the compound record lists GI50 as 11.1 µM (inactive)

For CN(C)CC1CCCC/C1=N/OC(=O)c1ccc(Cl)c(Cl)c1 (stereo not given) the compound record lists GI50 as > 100 µM (inactive)

For COc1nc(-c2cn(S(=O)(=O)c3ccc(C)cc3)c3ccc(Br)cc23)cc(C(F)(F)F)c1C#N the compound record lists GI50 as 14.9 µM (inactive)

For Nc1ncnc2c1nc(-c1ccccc1)n2C1OC(CO)C(O)C1O (stereo not given) the compound record lists GI50 as > 100 µM (inactive)

For O=C(O)c1ccccc1Cc1ccco1 the compound record lists GI50 as > 100 µM (inactive)

For N#CC(C#N)=Cc1c[nH]c(=O)[nH]c1=O the compound record lists GI50 as > 100 µM (inactive)

For Cn1ccc2c(c1=O)C(=O)OC2(C)C [CERPEGIN] the compound record lists GI50 as > 100 µM (inactive)

For Cc1c2cccc-2c(N(C)C)cc2c1[nH]c1ccccc12 the compound record lists GI50 as 2.07 µM (inactive)

For COc1ccc(/C=C/CN(C)CCc2ccccc2)cc1OC the compound record lists GI50 as 59.3 µM (inactive)

For Cc1cc(N=C2C=C(Br)C(=O)C(Br)=C2)cc(CN(CC(=O)O)CC(=O)O)c1O the compound record lists GI50 as > 100 µM (inactive)

For CN1C/C(=C\c2ccco2)c2nc(N)nc(-c3ccco3)c2C1 the compound record lists GI50 as 31.7 µM (inactive)

For Nc1ncnc2c1sc1nc3ccccc3n12 the compound record lists GI50 as > 91.4 µM (inactive)

For Cc1ccc(S(N)(=O)=O)cc1 [P-TOLUENESULFONAMIDE] the compound record lists GI50 as > 1000 µM (inactive)

For COC(C)C(O)(C(=O)OCC1=CCN2CCC(O)C12)C(C)(C)O (stereo not given) the compound record lists GI50 as > 100 µM (inactive)

For COC(=O)[C@@H]1[C@H](O)CC[C@H]2[C@@]1(C)CC[C@@H](C)[C@]2(COC(C)=O)CC(=O)c1ccoc1 the compound record lists GI50 as 26.1 µM (inactive)

Where do the numbers come from? From ChEMBL document CHEMBL1201862.
